Values compiled from patent US7579359B2.

Reported melting point is given for each of the following molecules.
MEASUREMENT_TYPE: melting point

[
  {
    "SUBSTANCE_SMILES": "CC(C)On1c(C2CCCCC2)nc2c(N)nc3ccccc3c21",
    "MEASUREMENT_TYPE": "melting point",
    "ENDPOINT_RESULT": "175 to 178 °C"
  },
  {
    "SUBSTANCE_SMILES": "CCCc1nc2c(N)nc3ccccc3c2n1OCC(N)=O",
    "MEASUREMENT_TYPE": "melting point",
    "ENDPOINT_RESULT": "192 to 194 °C"
  },
  {
    "SUBSTANCE_SMILES": "CCCc1nc2c(N)nc3ccccc3c2n1OC",
    "MEASUREMENT_TYPE": "melting point",
    "ENDPOINT_RESULT": "210 to 211 °C"
  },
  {
    "SUBSTANCE_SMILES": "CCCc1nc2c(N)nc3ccccc3c2n1OCC",
    "MEASUREMENT_TYPE": "melting point",
    "ENDPOINT_RESULT": "198 to 199 °C"
  },
  {
    "SUBSTANCE_SMILES": "Cc1nc2c(N)nc3ccccc3c2n1OC(C)(C)C",
    "MEASUREMENT_TYPE": "melting point",
    "ENDPOINT_RESULT": "255 to 257 °C"
  },
  {
    "SUBSTANCE_SMILES": "COn1c(-c2ccccc2)nc2c(N)nc3ccccc3c21",
    "MEASUREMENT_TYPE": "melting point",
    "ENDPOINT_RESULT": "241 to 243 °C"
  },
  {
    "SUBSTANCE_SMILES": "Cc1nc2c(N)nc3ccccc3c2n1OCCOc1ccccc1",
    "MEASUREMENT_TYPE": "melting point",
    "ENDPOINT_RESULT": "237 to 239 °C"
  },
  {
    "SUBSTANCE_SMILES": "CCc1nc2c(N)nc3ccccc3c2n1OC",
    "MEASUREMENT_TYPE": "melting point",
    "ENDPOINT_RESULT": "216 to 217 °C"
  },
  {
    "SUBSTANCE_SMILES": "CC(C)On1c(-c2ccccc2)nc2c(N)nc3ccccc3c21",
    "MEASUREMENT_TYPE": "melting point",
    "ENDPOINT_RESULT": "188 to 191 °C"
  },
  {
    "SUBSTANCE_SMILES": "CCCc1nc2c(N)nc3ccccc3c2n1O",
    "MEASUREMENT_TYPE": "melting point",
    "ENDPOINT_RESULT": "232 to 235 °C"
  },
  {
    "SUBSTANCE_SMILES": "COn1c(C(C)C)nc2c(N)nc3ccccc3c21",
    "MEASUREMENT_TYPE": "melting point",
    "ENDPOINT_RESULT": "217 to 219 °C"
  }
]

---

[
  {
    "SUBSTANCE_SMILES": "CC(C)On1c(C(C)C)nc2c(N)nc3ccccc3c21",
    "melting point": "177 to 179 °C"
  },
  {
    "SUBSTANCE_SMILES": "CCCc1nc2c(N)nc3ccccc3c2n1OCc1ccccc1",
    "melting point": "164 to 166 °C"
  },
  {
    "SUBSTANCE_SMILES": "Cc1nc2c(N)nc3ccccc3c2n1OC(C)C",
    "melting point": "243 °C"
  },
  {
    "SUBSTANCE_SMILES": "CC(C)On1cnc2c(N)nc3ccccc3c21",
    "melting point": "224 to 225 °C"
  },
  {
    "SUBSTANCE_SMILES": "CCc1nc2c(N)nc3ccccc3c2n1OC(C)C",
    "melting point": "242 to 243 °C"
  },
  {
    "SUBSTANCE_SMILES": "COn1c(C2CCCCC2)nc2c(N)nc3ccccc3c21",
    "melting point": "220 to 222 °C"
  },
  {
    "SUBSTANCE_SMILES": "CCOn1cnc2c(N)nc3ccccc3c21",
    "melting point": "179 to 181 °C"
  },
  {
    "SUBSTANCE_SMILES": "Cc1nc2c(N)nc3ccccc3c2n1OCC(C)C",
    "melting point": "215 to 216 °C"
  },
  {
    "SUBSTANCE_SMILES": "COn1c(C)nc2c(N)nc3ccccc3c21",
    "melting point": "237 to 238 °C"
  },
  {
    "SUBSTANCE_SMILES": "CCCCc1nc2c(N)nc3ccccc3c2n1OC",
    "melting point": "197 to 199 °C"
  },
  {
    "SUBSTANCE_SMILES": "CCOn1c(C)nc2c(N)nc3ccccc3c21",
    "melting point": "219 to 221 °C"
  }
]
